These entries and their values trace back to patent US5530141A.

Biological target: 5-LO (Rattus norvegicus, UniProt P12527)
Sequence (P12527 1-673): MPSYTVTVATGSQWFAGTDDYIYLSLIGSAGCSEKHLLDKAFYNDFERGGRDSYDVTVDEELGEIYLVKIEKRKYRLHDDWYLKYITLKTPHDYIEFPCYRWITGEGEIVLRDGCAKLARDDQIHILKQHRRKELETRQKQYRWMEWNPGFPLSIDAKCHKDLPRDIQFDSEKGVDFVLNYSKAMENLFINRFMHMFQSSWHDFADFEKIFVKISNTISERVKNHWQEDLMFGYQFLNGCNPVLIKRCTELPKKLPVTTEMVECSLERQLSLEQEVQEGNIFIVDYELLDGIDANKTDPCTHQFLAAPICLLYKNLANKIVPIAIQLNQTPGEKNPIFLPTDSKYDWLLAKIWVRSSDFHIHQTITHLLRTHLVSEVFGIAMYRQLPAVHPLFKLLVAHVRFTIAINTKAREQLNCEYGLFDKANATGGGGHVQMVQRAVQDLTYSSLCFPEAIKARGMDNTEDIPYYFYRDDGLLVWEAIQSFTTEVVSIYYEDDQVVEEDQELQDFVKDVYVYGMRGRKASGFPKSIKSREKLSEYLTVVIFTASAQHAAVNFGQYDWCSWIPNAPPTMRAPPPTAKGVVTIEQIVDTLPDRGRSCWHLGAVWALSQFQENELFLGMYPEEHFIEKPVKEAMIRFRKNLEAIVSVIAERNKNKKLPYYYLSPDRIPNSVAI
Assay: 5-LO inhibition (Table 1)
Format: biochemical
Conditions: @ 3 μM; read-out: 5-LO, percent @ 3 μM
Recorded inhibition at 3 µM values for a group of molecules are listed next.
Please give a number only; it is taken to be in %.

molecule="COc1cc([C@H]2SC[C@H](c3cc(OC)c(OC)c(OC)c3)S2)cc(N)c1OCCSc1ccc(O)cc1 (relative stereo)" measure_name="inhibition at 3 µM" u=% data_value=41
molecule="COc1cc([C@H]2CS[C@H](c3cc(OC)c(OCCSc4ccc(O)cc4)c(N(C)C)c3)S2)cc(OC)c1OC (relative stereo)" measure_name="inhibition at 3 µM" u=% data_value=25

Given the molecule COc1cc([C@H]2CS[C@H](c3cc(OC)c(OCCSc4ccc(O)cc4)c([N+](=O)[O-])c3)S2)cc(OC)c1OC (relative stereo) , write its reported inhibition at 3 µM.
57

Given the molecule COc1cc([C@H]2SC[C@H](c3cc(OC)c(OC)c(OC)c3)S2)cc(NC(=O)N(O)c2ccc(Cl)cc2)c1OCCSc1ccc(O)cc1 (relative stereo) , write its reported inhibition at 3 µM.
64
